Each entry below lists one item and its recorded half-life value.
assay: Half life in human CEM/0 cell extracts incubated at 37 degC by RP-18-HPLC method; format: ADME, CCRF-CEM
Enter your answer as a number in min; do not include the unit.

// solved cases for half-life follow
COMPOUND	half-life, min
Cc1cn([C@H]2C[C@H](N=[N+]=[N-])[C@@H](COP(=O)(O)OP(=O)(O)OCc3ccc(OC(=O)c4ccc(C(F)(F)F)cc4)cc3)O2)c(=O)[nH]c1=O	230
CCCCCCCCCC(=O)Oc1ccc(COP(=O)(OCc2ccc(OC(C)=O)cc2)OP(=O)(O)OC[C@H]2O[C@@H](n3cc(C)c(=O)[nH]c3=O)C[C@@H]2N=[N+]=[N-])cc1.N (stereo partly drawn)	2.4

// query // half-life lookup, key: CCCCCCCCCC(=O)Oc1ccc(COP(=O)(OCc2ccc(OC(C)=O)cc2)OP(=O)(O)OC[C@@H]2C=C[C@H](n3cc(C)c(=O)[nH]c3=O)O2)cc1.N (stereo partly drawn)
// result 2.4

* * *

experiment: Half life in human CEM/0 cell extracts incubated at 37 degC by RP-18-HPLC method; type: ADME, CCRF-CEM
MEASURE_NAME: half-life
Quick note: number first, unit second.

// solved cases for half-life follow
COMPOUND	half-life
CCCCCCCC(=O)Oc1ccc(COP(=O)(OCc2ccc(OC(C)=O)cc2)OP(=O)(O)OC[C@@H]2C=C[C@H](n3cc(C)c(=O)[nH]c3=O)O2)cc1.N (stereo partly specified)	2.4 min
CCCCCCCC(=O)Oc1ccc(COP(=O)(O)OP(=O)(O)OC[C@H]2O[C@@H](n3cc(C)c(=O)[nH]c3=O)C[C@@H]2N=[N+]=[N-])cc1	99 min
CCCCCCCCCCCC(=O)Oc1ccc(COP(=O)(OCc2ccc(OC(C)=O)cc2)OP(=O)(O)OC[C@H]2O[C@@H](n3cc(C)c(=O)[nH]c3=O)C[C@@H]2N=[N+]=[N-])cc1.N (stereo partly specified)	6.6 min
CCCCCCCCCC(=O)Oc1ccc(COP(=O)(OCc2ccc(OC(=O)CCCC)cc2)OP(=O)(O)OC[C@H]2O[C@@H](n3cc(C)c(=O)[nH]c3=O)C[C@@H]2N=[N+]=[N-])cc1.N (stereo partly specified)	60 min
CCCCCCCC(=O)Oc1ccc(COP(=O)(O)OP(=O)(O)OC[C@@H]2C=C[C@H](n3cc(C)c(=O)[nH]c3=O)O2)cc1	99 min

Next up:
// query // half-life lookup, key: CC(=O)Oc1ccc(COP(=O)(OCc2ccc(OC(=O)c3ccc(C(F)(F)F)cc3)cc2)OP(=O)(O)OC[C@@H]2C=C[C@H](n3cc(C)c(=O)[nH]c3=O)O2)cc1.N (stereo partly specified)
// result 1.8 min

* * *

assay: Half life in presence of pig liver esterase assessed as half life for DiPPro-NDP by RP-18-HPLC method; type: ADME
If the reported half-life equals or exceeds 20 s, assign MET. If not, assign NOT MET.

Sample answers from the record:
COMPOUND	CATEGORY
CCCCCCCC(=O)Oc1ccc(COP(=O)(OCc2ccc(OC(=O)CCCC)cc2)OP(=O)(O)OC[C@H]2O[C@@H](n3cc(C)c(=O)[nH]c3=O)C[C@@H]2N=[N+]=[N-])cc1.N (stereo not given in full)	NOT MET
CCCCCCCCCCCC(=O)Oc1ccc(COP(=O)(OCc2ccc(OC(C)=O)cc2)OP(=O)(O)OC[C@H]2O[C@@H](n3cc(C)c(=O)[nH]c3=O)C[C@@H]2N=[N+]=[N-])cc1.N (stereo not given in full)	NOT MET
CCCCCCCCCCCC(=O)Oc1ccc(COP(=O)(OCc2ccc(OC(=O)CCCC)cc2)OP(=O)(O)OC[C@H]2O[C@@H](n3cc(C)c(=O)[nH]c3=O)C[C@@H]2N=[N+]=[N-])cc1.N (stereo not given in full)	MET
CCCCCCCCCC(=O)Oc1ccc(COP(=O)(OCc2ccc(OC(C)=O)cc2)OP(=O)(O)OC[C@H]2O[C@@H](n3cc(C)c(=O)[nH]c3=O)C[C@@H]2N=[N+]=[N-])cc1.N (stereo not given in full)	MET

// query Is the recorded value of half-life equal to or greater than 20 s for this compound? CCCCCCCCCC(=O)Oc1ccc(COP(=O)(OCc2ccc(OC(=O)CCCC)cc2)OP(=O)(O)OC[C@@H]2C=C[C@H](n3cc(C)c(=O)[nH]c3=O)O2)cc1.N (stereo not given in full)
// result NOT MET

* * *

experiment: Half life in pH 7.3 PBS incubated at 37 degC by RP-18-HPLC method; type: physicochemical
Values of half-life strictly less than 30 h map to criterion met, and values of at least 30 h map to criterion not met.

Sample answers from the record:
COMPOUND	CATEGORY
CC(=O)Oc1ccc(COP(=O)(OCc2ccc(OC(=O)c3ccc(C)cc3)cc2)OP(=O)(O)OC[C@@H]2C=C[C@H](n3cc(C)c(=O)[nH]c3=O)O2)cc1.N (stereo partly specified)	criterion not met
CCCCCCCCCCCC(=O)Oc1ccc(COP(=O)(OCc2ccc(OC(=O)CCCC)cc2)OP(=O)(O)OC[C@@H]2C=C[C@H](n3cc(C)c(=O)[nH]c3=O)O2)cc1.N (stereo partly specified)	criterion not met
CCCCC(=O)Oc1ccc(COP(=O)(OCc2ccc(OC(=O)c3ccc(C(F)(F)F)cc3)cc2)OP(=O)(O)OC[C@@H]2C=C[C@H](n3cc(C)c(=O)[nH]c3=O)O2)cc1.N (stereo partly specified)	criterion met

// query Problem: For the compound CCCCCCCC(=O)Oc1ccc(COP(=O)(OCc2ccc(OC(=O)CCCC)cc2)OP(=O)(O)OC[C@@H]2C=C[C@H](n3cc(C)c(=O)[nH]c3=O)O2)cc1.N (stereo partly specified) , is half-life under 30 h?
// result criterion not met

// query Item: CCCCCCCCCCCC(=O)Oc1ccc(COP(=O)(OCc2ccc(OC(C)=O)cc2)OP(=O)(O)OC[C@H]2O[C@@H](n3cc(C)c(=O)[nH]c3=O)C[C@@H]2N=[N+]=[N-])cc1.N (stereo partly specified)
// result criterion not met

// query Item: CCCCCCCCCC(=O)Oc1ccc(COP(=O)(OCc2ccc(OC(C)=O)cc2)OP(=O)(O)OC[C@H]2O[C@@H](n3cc(C)c(=O)[nH]c3=O)C[C@@H]2N=[N+]=[N-])cc1.N (stereo partly specified)
// result criterion not met

* * *

test system: Human immunodeficiency virus 2; assay: Antiviral activity against HIV2 ROD infected in human thymidine kinase deficient CEM/TK- cells assessed as reduction in virus-induced giant cell formation incubated for 4 to 5 days; assay type: functional, organism-based; conditions: Human immunodeficiency virus 2, ISOLATE ROD
MEASURE_NAME: EC50 (µM)
Enter your answer as a number in µM; do not include the unit.

// solved cases for EC50 follow
COMPOUND	EC50 [µM]
CCCCCCCCCC(=O)Oc1ccc(COP(=O)(OCc2ccc(OC(=O)CCCC)cc2)OP(=O)(O)OC[C@@H]2C=C[C@H](n3cc(C)c(=O)[nH]c3=O)O2)cc1.N (stereo partly specified)	0.83
CCCCCCCCCC(=O)Oc1ccc(COP(=O)(OCc2ccc(OC(=O)CCCC)cc2)OP(=O)(O)OC[C@H]2O[C@@H](n3cc(C)c(=O)[nH]c3=O)C[C@@H]2N=[N+]=[N-])cc1.N (stereo partly specified)	10
CCCCCCCC(=O)Oc1ccc(COP(=O)(OCc2ccc(OC(=O)CCCC)cc2)OP(=O)(O)OC[C@@H]2C=C[C@H](n3cc(C)c(=O)[nH]c3=O)O2)cc1.N (stereo partly specified)	6.31
CCCCC(=O)Oc1ccc(COP(=O)(OCc2ccc(OC(=O)c3ccc(C)cc3)cc2)OP(=O)(O)OC[C@@H]2C=C[C@H](n3cc(C)c(=O)[nH]c3=O)O2)cc1.N (stereo partly specified)	10

Next up:
// query // EC50 lookup, key: CCCCCCCCCCCC(=O)Oc1ccc(COP(=O)(OCc2ccc(OC(C)=O)cc2)OP(=O)(O)OC[C@H]2O[C@@H](n3cc(C)c(=O)[nH]c3=O)C[C@@H]2N=[N+]=[N-])cc1.N (stereo partly specified)
// result 10

* * *

assay: Cytotoxicity against human CEM/0 cells assessed as reduction in cell proliferation incubated for 4 to 5 days; details: ccrf-cem
MEASURE_NAME: CC50 (µM)
Enter your answer as a number in µM; do not include the unit.

// query // CC50 lookup, key: `Cc1cn([C@H]2C=C[C@@H](CO)O2)c(=O)[nH]c1=O`
// result 79

* * *

Each entry below lists one item and its recorded half-life value.
assay: Half life in presence of pig liver esterase assessed as half life for DiPPro-NDP by RP-18-HPLC method; type: ADME
Enter your answer as a number in s; do not include the unit.

// solved cases for half-life follow
MOLECULE	MEASURE_NAME	RECORDED_MEASUREMENT
CCCCCCCCCC(=O)Oc1ccc(COP(=O)(OCc2ccc(OC(C)=O)cc2)OP(=O)(O)OC[C@@H]2C=C[C@H](n3cc(C)c(=O)[nH]c3=O)O2)cc1.N (stereo partly drawn)	half-life	8.4
CCCCCCCCCC(=O)Oc1ccc(COP(=O)(OCc2ccc(OC(=O)CCCC)cc2)OP(=O)(O)OC[C@H]2O[C@@H](n3cc(C)c(=O)[nH]c3=O)C[C@@H]2N=[N+]=[N-])cc1.N (stereo partly drawn)	half-life	16.2

Next up:
// query // half-life lookup, key: CCCCCCCC(=O)Oc1ccc(COP(=O)(OCc2ccc(OC(C)=O)cc2)OP(=O)(O)OC[C@H]2O[C@@H](n3cc(C)c(=O)[nH]c3=O)C[C@@H]2N=[N+]=[N-])cc1.N (stereo partly drawn)
// result 12.6
